measured_on: UniProt:P28190
Sequence (whole entry): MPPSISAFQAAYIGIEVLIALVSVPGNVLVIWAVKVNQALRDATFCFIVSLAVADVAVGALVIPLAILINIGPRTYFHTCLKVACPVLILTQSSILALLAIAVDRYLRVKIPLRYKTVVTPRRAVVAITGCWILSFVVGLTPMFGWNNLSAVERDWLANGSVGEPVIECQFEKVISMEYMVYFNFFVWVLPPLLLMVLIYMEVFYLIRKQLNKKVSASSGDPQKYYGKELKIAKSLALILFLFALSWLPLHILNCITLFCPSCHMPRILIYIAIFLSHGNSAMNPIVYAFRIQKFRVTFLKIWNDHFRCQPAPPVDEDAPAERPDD
method_notes: Displacement of [125I]DPCPX from adenosine A1 receptor in bovine brain membrane at 10 uM
Assay type: cell membranes
reported_conditions: in the assay text read “[3H]DPCPX” for “[125I]DPCPX”
reported_property: Activity
The number alone won't do; follow it with the unit.

- sample_smiles: "O=C(Nc1nc2c([N+](=O)[O-])cccc2n2c(=O)n(-c3ccccc3)nc12)c1ccncc1"
  experimental_result: "37.5%"
- sample_smiles: "COc1ccc(-n2nc3c(OCc4ccccc4)nc4ccccc4n3c2=O)cc1"
  experimental_result: "53%"
- sample_smiles: "COc1ccc(-n2nc3c(NS(C)(=O)=O)nc4ccccc4n3c2=O)cc1"
  experimental_result: "6%"
- sample_smiles: "COc1ccc(-n2nc3c(N(S(C)(=O)=O)S(C)(=O)=O)nc4ccccc4n3c2=O)cc1"
  experimental_result: "6.2%"

Pending compound:
Measured on UniProt:P28190, COC(=O)c1ccc(C(=O)Nc2nc3ccccc3n3c(=O)n(-c4ccc(OC)cc4)nc23)cc1 has a documented Activity of 30.5%

* * *

measured_on: Adenosine receptor A3 (Homo sapiens) (UniProt P0DMS8)
Sequence (P0DMS8 whole entry): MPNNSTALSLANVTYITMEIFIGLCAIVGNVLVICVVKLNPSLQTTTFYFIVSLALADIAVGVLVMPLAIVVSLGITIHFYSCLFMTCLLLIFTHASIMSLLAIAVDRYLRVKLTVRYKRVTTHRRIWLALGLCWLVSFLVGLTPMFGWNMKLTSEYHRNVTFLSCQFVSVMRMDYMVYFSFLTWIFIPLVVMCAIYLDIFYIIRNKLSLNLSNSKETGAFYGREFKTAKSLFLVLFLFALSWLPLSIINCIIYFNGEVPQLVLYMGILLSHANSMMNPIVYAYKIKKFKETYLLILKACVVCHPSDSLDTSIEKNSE
method_notes: Displacement of [125I]AB-MECA from human cloned adenosine A3 receptor expressed in CHO cells at 1 uM
Format: cell-based
// reported Activity for each item listed
Could you give me the number in %? Just the number is fine.

Consider the worked cases shown below.
- sample_smiles: "CS(=O)(=O)Nc1nc2c([N+](=O)[O-])cccc2n2c(=O)n(-c3ccccc3)nc12"
  experimental_result: 37
- sample_smiles: "O=C(Nc1nc2c([N+](=O)[O-])cccc2n2c(=O)n(-c3ccccc3)nc12)c1ccncc1"
  experimental_result: 0
- sample_smiles: "COC(=O)c1ccc(C(=O)Nc2nc3ccccc3n3c(=O)n(-c4ccccc4)nc23)cc1"
  experimental_result: 41

Item O=C(Nc1nc2ccccc2n2c(=O)n(-c3ccccc3)nc12)c1cccc(I)c1 was tested on Adenosine receptor A3 (Homo sapiens) (UniProt P0DMS8); the reported Activity is 36

* * *

measured_on: Adenosine receptor A2a (Homo sapiens)
Sequence (P29274 whole entry): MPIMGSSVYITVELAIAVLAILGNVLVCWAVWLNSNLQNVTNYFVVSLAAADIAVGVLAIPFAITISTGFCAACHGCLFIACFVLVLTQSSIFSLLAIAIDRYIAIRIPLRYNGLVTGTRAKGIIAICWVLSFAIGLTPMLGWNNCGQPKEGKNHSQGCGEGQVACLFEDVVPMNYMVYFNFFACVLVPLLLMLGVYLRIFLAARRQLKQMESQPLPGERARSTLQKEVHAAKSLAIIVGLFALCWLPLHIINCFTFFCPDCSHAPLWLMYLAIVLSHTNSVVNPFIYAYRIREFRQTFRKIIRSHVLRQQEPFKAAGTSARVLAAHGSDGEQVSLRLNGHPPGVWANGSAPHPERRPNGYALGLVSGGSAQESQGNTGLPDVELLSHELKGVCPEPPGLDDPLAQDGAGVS
method_notes: Displacement of [125I]NECA from human adenosine A2A receptor expressed in CHO cells at 10uM
Format: cell-based
reported_conditions: in the assay text read “[3H]NECA” for “[125I]NECA”
The entries below come with measured Activity values attached.
Reply numerically in %, unit not repeated.

- sample_smiles: "CS(=O)(=O)N(c1nc2ccccc2n2c(=O)n(-c3ccccc3)nc12)S(C)(=O)=O"
  reported_property: "Activity"
  experimental_result: 32
- sample_smiles: "O=c1n(-c2ccccc2)nc2c(NS(=O)(=O)c3ccccc3)nc3ccccc3n12"
  reported_property: "Activity"
  experimental_result: 27
- sample_smiles: "COc1ccc(-n2nc3c(NC(=O)NCc4ccccc4)nc4ccccc4n3c2=O)cc1"
  reported_property: "Activity"
  experimental_result: 23
- sample_smiles: "COc1ccc(-n2nc3c(OCc4ccccc4)nc4ccccc4n3c2=O)cc1"
  reported_property: "Activity"
  experimental_result: 4
- sample_smiles: "O=c1n(-c2ccccc2)nc2c(OCc3ccccc3)nc3ccccc3n12"
  reported_property: "Activity"
  experimental_result: 10

Entry O=C(NCc1ccccc1)Nc1nc2c([N+](=O)[O-])cccc2n2c(=O)n(-c3ccccc3)nc12 under Adenosine receptor A2a (Homo sapiens) had Activity of 20

Value sought: Activity, system Adenosine receptor A2a (Homo sapiens), item COc1ccc(-n2nc3c(NS(=O)(=O)c4ccccc4)nc4ccccc4n3c2=O)cc1 . Result: 23

* * *

measured_on: UniProt:P30542
method_notes: Displacement of [3H]DPCPX from human cloned adenosine A1 receptor expressed in CHO cells
reported_property: pKi
Formally, pKi is defined as -log10 of the concentration c, with c in mol/L.

- sample_smiles: "COc1ccc(-n2nc3c(NC(=O)c4ccncc4)nc4ccccc4n3c2=O)cc1"
  pKi: 6.11
- sample_smiles: "COc1ccc(-n2nc3c(NC(=O)NCc4ccccc4)nc4ccccc4n3c2=O)cc1"
  pKi: 5.38

The measured pKi associated with O=C(Nc1nc2ccccc2n2c(=O)n(-c3ccccc3)nc12)c1ccncc1 reads 5.62

* * *

method_notes: Displacement of [3H]CGS21680 from adenosine A2A receptor in bovine brain membrane
Assay type: cell membranes, Bos taurus
pKi: −log10 of the molar value.
Short version: pKi at least 6 is condition met, less is condition not met.

Field: example entries. Status: answers known.
- sample_smiles: "O=C(NC(=O)c1ccccc1)Nc1nc2ccccc2n2c(=O)n(-c3ccccc3)nc12"
  assigned_category: "condition met"
- sample_smiles: "O=C(Nc1cccc(I)c1)Nc1nc2ccccc2n2c(=O)n(-c3ccccc3)nc12"
  assigned_category: "condition not met"
- sample_smiles: "CCCn1c(=O)c2[nH]c(C3CCCC3)nc2n(CCC)c1=O"
  assigned_category: "condition met"

Would you kindly look at the next entry?
## Input Determine whether this compound has pKi no lower than 6: O=C(NCc1ccccc1)Nc1nc2ccccc2n2c(=O)n(-c3ccccc3)nc12
## Output condition met

* * *

Recorded below: Ki, system Adenosine receptor A2a (Homo sapiens, UniProt P29274).
Please reply with the bare figure in nM and do not write the unit itself.

- sample_smiles: "O=C(Nc1nc2ccccc2n2c(=O)n(-c3ccccc3)nc12)c1ccncc1"
  Ki, nM: 188

// next entry
The compound O=C(NCc1ccccc1)Nc1nc2ccccc2n2c(=O)n(-c3ccccc3)nc12 on Adenosine receptor A2a (Homo sapiens, UniProt P29274): Ki was 158

* * *

measured_on: Adenosine receptor A1 (Homo sapiens) (UniProt P30542)
Sequence (P30542 whole entry): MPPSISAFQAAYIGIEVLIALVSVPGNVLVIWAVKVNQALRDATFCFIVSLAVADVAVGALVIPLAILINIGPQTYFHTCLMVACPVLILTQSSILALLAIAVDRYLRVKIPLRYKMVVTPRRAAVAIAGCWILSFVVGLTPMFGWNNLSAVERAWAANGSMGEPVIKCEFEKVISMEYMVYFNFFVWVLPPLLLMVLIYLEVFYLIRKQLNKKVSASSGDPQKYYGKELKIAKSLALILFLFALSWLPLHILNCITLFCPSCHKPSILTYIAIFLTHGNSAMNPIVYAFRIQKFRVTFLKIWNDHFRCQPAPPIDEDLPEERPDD
method_notes: Displacement of [3H]DPCPX from human cloned adenosine A1 receptor expressed in CHO cells at 10 uM
reported_property: Activity (%)
Express your answer in %, writing the number without its unit.

Solved cases (4 shown):
- sample_smiles: "O=c1n(-c2ccccc2)nc2c(NS(=O)(=O)c3ccccc3)nc3ccccc3n12"
  value_units: "%"
  Activity: 0
- sample_smiles: "O=C(NCc1ccccc1)Nc1nc2c([N+](=O)[O-])cccc2n2c(=O)n(-c3ccccc3)nc12"
  value_units: "%"
  Activity: 4
- sample_smiles: "CS(=O)(=O)N(c1nc2ccccc2n2c(=O)n(-c3ccccc3)nc12)S(C)(=O)=O"
  value_units: "%"
  Activity: 36
- sample_smiles: "O=c1n(-c2ccccc2)nc2c(OCc3ccccc3)nc3ccccc3n12"
  value_units: "%"
  Activity: 46

// recorded Activity for COc1ccc(-n2nc3c(OCc4ccccc4)nc4ccccc4n3c2=O)cc1 : 54

* * *

Species: Bos taurus
method_notes: Displacement of [3H]CGS21680 from adenosine A2A receptor in bovine brain membrane at 10 uM
Format: cell membranes
// assign 1 if Activity falls strictly below 30%, else 0 (ties count as 0)

## Input Activity strictly < 30% for this molecule? O=C(Nc1nc2c([N+](=O)[O-])cccc2n2c(=O)n(-c3ccccc3)nc12)c1ccncc1
## Output 1

## Input Is the reported Activity for COc1ccc(-n2nc3c(OCc4ccccc4)nc4ccccc4n3c2=O)cc1 strictly below 30%?
## Output 0

## Input Below 30% on Activity? Entry COC(=O)c1ccc(C(=O)Nc2nc3ccccc3n3c(=O)n(-c4ccc(OC)cc4)nc23)cc1
## Output 0

## Input Is Activity of O=c1n(-c2ccccc2)nc2c(NS(=O)(=O)c3ccccc3)nc3c([N+](=O)[O-])cccc3n12 strictly below 30%?
## Output 1

## Input Consider the molecule CS(=O)(=O)Nc1nc2ccccc2n2c(=O)n(-c3ccccc3)nc12 . Is its Activity strictly less than 30%?
## Output 0

## Input Determine whether this molecule shows Activity lower than 30% (ties excluded): COC(=O)c1ccc(C(=O)Nc2nc3ccccc3n3c(=O)n(-c4ccccc4)nc23)cc1
## Output 0

## Input API: query returns whether the molecule falls strictly under 30% in Activity. Query: O=c1n(-c2ccccc2)nc2c(OCc3ccccc3)nc3ccccc3n12
## Output 1

## Input # strict comparison: is reported Activity < 30%? input = O=C(Nc1nc2ccccc2n2c(=O)n(-c3ccccc3)nc12)c1ccccc1
## Output 0

## Input For this molecule, is Activity lower than 30%? COc1ccc(-n2nc3c(NC(=O)NCc4ccccc4)nc4ccccc4n3c2=O)cc1
## Output 1

## Input Threshold test, Activity < 30%: O=c1n(-c2ccccc2)nc2c(NS(=O)(=O)c3ccccc3)nc3ccccc3n12
## Output 0

## Input Please check: Activity for CS(=O)(=O)N(c1nc2ccccc2n2c(=O)n(-c3ccccc3)nc12)S(C)(=O)=O , strictly under 30% or not?
## Output 0

## Input Just wondering, is Activity of CS(=O)(=O)Nc1nc2c([N+](=O)[O-])cccc2n2c(=O)n(-c3ccccc3)nc12 below 30%?
## Output 1

## Input Strictly below 30% in Activity? COc1ccc(-n2nc3c(NS(=O)(=O)c4ccccc4)nc4ccccc4n3c2=O)cc1
## Output 1
